assay: Antioxidant activity assessed as ABTS radical scavenging activity up to 1 mM after 12 hrs by spectrophotometry; type: physicochemical
ATTRIBUTE MEASURED: Activity

O=C(/C=C/c1ccc(O)cc1)OC/C=C/c1ccccc1 : Not Active
O=C(/C=C/c1ccc(O)cc1)OCc1ccccc1 : Not Active
O=C(/C=C/c1ccccc1)OC/C=C/c1ccccc1 : Not Active
O=C(/C=C/c1ccccc1)OCCc1ccccc1 [PHENETHYL CINNAMATE] : Not Active

###

experiment: Antioxidant activity assessed as hydroxyl radical scavenging activity at 50 uM after 30 mins by Fenton reaction-induced DNA single strand breakage method; assay type: physicochemical; conditions: 0.5 h
ATTRIBUTE MEASURED: Activity

These recorded examples may help you get a feel for the data.
COc1cc(/C=C/C(=O)OCC=C(C)C)ccc1O : Not Active
CCOC(=O)/C=C/c1ccc(O)c(O)c1 [ETHYL CAFFEATE] : Active
O=C(/C=C/c1ccc(O)c(O)c1)OCCc1ccccc1 : Active
COc1cc(/C=C/C(=O)OCc2ccccc2)ccc1O [BENZYL FERULATE] : Not Active

[ask] Look up Activity: O=C(/C=C/c1ccc(O)c(O)c1)OCc1ccccc1 [BENZYL CAFFEATE]
[reply] Active

The measured values listed here are drawn from ChEMBL document CHEMBL3351369.
